List of AC50 values.
Biological target: Cytochrome P450 1A2 (Homo sapiens, UniProt P05177);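 further: PubChem cytochrome P450 panel assay, CYP1A2 panel member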
Sequence (P05177 whole entry): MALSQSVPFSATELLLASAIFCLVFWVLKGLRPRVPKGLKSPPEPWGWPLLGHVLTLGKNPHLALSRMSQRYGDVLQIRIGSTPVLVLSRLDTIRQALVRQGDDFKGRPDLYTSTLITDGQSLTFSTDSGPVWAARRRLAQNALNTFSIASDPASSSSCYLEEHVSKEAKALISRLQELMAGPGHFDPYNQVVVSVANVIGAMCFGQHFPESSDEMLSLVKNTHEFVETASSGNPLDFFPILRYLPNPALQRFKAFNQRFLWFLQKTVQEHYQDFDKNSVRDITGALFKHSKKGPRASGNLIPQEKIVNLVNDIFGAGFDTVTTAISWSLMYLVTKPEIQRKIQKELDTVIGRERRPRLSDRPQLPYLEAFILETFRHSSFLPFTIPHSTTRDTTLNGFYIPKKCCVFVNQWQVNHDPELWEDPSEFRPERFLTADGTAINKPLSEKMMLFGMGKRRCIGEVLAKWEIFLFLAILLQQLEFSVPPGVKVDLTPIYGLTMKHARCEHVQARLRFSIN
resultType: AC50

> print(dat)
                           structurenotation  resulttype       experimentalvalue
 1  Nc1nc(CSc2nnnn2-c2ccc(Cl)cc2)nc(N2CCOCC2)n1        AC50  2.51 µM (inconclusive)
 2          CN1CCc2nc3ccc(F)cc3c(C(N)=O)c2C1        AC50  25.1 µM (inconclusive)
 3        O=Nc1c(O)n(Cc2cccc(Cl)c2)c2ccccc12        AC50  25.1 µM (inconclusive)
 4  CC(=O)[C@@H]1CC[C@H]2[C@H]3CC[C@H]4C[C@@H](O)CC[C@]4(C)[C@@H]3CC[C@]12C        AC50    10 µM (inconclusive)
 5  O=C(c1cnccn1)N1CCC2(CCCN(c3ccc(-c4ccccc4)cc3)C2)CC1        AC50  25.1 µM (inconclusive)
 6  CN1CCN(c2ncc3nc(-c4ccccc4)c(=O)n(Cc4cccs4)c3n2)CC1        AC50  15.8 µM (inconclusive)
 7  COc1ccccc1CN1CC[C@@]2(CCCN(C(=O)Oc3ccccc3)C2)C1        AC50    10 µM (inconclusive)
 8  COc1ccc(C(=O)N2CCC3(CCCN(C(=O)Nc4cccc(C#N)c4)C3)CC2)cc1        AC50  15.8 µM (inconclusive)
 9           Cc1c(N(C)C)c(=O)n(-c2ccccc2)n1C        AC50    10 µM (inconclusive)
10           CCCCN(CCCC)CCCOC(=O)c1ccc(N)cc1        AC50    10 µM (inconclusive)

====

Target: Rac GTPase-activating protein 1 (Homo sapiens, UniProt Q9H0H5)
Sequence (Q9H0H5 whole entry): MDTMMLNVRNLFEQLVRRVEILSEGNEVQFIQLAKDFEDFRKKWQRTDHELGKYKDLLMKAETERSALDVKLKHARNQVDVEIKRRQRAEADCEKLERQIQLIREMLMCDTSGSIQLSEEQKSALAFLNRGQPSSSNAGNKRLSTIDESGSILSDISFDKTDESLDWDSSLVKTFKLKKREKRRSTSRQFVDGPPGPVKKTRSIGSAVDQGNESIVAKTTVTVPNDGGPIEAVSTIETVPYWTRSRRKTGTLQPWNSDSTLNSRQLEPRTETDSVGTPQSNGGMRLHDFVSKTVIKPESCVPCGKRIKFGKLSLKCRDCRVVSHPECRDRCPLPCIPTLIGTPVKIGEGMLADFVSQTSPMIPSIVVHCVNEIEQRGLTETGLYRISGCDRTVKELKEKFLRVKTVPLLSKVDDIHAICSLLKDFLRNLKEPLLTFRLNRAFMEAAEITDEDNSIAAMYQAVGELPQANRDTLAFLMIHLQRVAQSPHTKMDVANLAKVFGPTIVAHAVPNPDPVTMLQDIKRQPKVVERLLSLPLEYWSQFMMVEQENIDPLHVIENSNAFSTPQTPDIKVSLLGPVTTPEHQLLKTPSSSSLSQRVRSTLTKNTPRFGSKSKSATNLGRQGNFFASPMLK
Test: MgcRacGAP GTPase-activating activity inhibitors, confirmation, biochemical, ADP Hunter fluorescence, primary and confirmatory (AID 624330)
Type: functional
Activity calls are given as the source filed them. No rule for the calls is given here.
resultType: IC50

> print(dat)
                                   compound  experimentalvalue
1  COc1cc(NC(C)CCCNC(C)C)c2ncccc2c1OC (configuration not stated)   31.7 µM (active)
2  O=C(Cn1c(C(=O)NCC2CCCO2)cc2sccc21)c1ccccc1 (configuration not stated)    102 µM (active)
3     CCc1nnc(N/N=C/c2c(C)[nH]c3ccccc23)n1N   51.7 µM (active)
4  COc1cc(/C=C/C(=O)OCC(=O)Nc2ccc(S(=O)(=O)N3CCCC3)cc2)ccc1O     60 µM (active)
5  COc1cc(/C=C2\C(=O)N(c3cccc(C(=O)O)c3)N=C2C)ccc1OCc1ccccc1   43.9 µM (active)
6  COc1cc2c(cc1NC(=O)C(Cl)Cl)-c1ccc(NC(=O)C(Cl)Cl)cc1C2   58.4 µM (active)
7    CC(=C/c1ccccc1)/C=N/n1c(S)nnc1-c1ccco1   86.4 µM (active)

Source listed as ChEMBL document CHEMBL1201862.
